# maps each entry to its Kd
Target: T1, ActRIIB receptor-human-IgG1-Fc fusion protein (human, UniProt Q13705 19-137, limits assumed)
T1 construct: extracellular domain; See note of m11; also called ATRIIB; not shown: human IgG1 Fc
T1 sequence (looked up): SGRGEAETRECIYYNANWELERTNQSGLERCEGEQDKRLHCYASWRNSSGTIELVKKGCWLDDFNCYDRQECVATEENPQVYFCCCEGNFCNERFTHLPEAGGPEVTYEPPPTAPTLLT
Assay: ActRIIb affinity; method not given
Write down the numeric answer in nM and omit the unit.

Please review the following examples before continuing.
{"binder": "designer BMP-GER-NR (ligand) QAKHKQRKRLKSSCKRHPLYVDFSDVGWNDWIIAPRGYAAFYCDGECSFPLNAHMNATNHAIVQTLVHLMNPEYVPKPCCAPTKLRPMSMLYYDDGQNIIKKDIQNMIVEECGCS", "scale.unit": "nM", "Kd": 0.07}
{"binder": "designer BMP-E-NR (ligand) QAKHKQRKRLKSSCKRHPLYVDFSDVGWNDWIVAPPGYHAFYCDGECSFPLNAHMNATNHAIVQTLVHLMNPEYVPKPCCAPTKLRPMSMLYYDDGQNIIKKDIQNMIVEECGCS", "scale.unit": "nM", "Kd": 0.5}
{"binder": "designer BMPE (ligand, N-linked glycan at N56 (CHO-produced), Produced in CHO cells) QAKHKQRKRLKSSCKRHPLYVDFSDVGWNDWIVAPPGYHAFYCDGECSFPLNAHMNATNHAIVQTLVHLMNPEYVPKPCCAPTELSAISMLYLDENEKVVLKNYQDMVVEGCGCR", "scale.unit": "nM", "Kd": 9}

# input Param item = designer BMP-GER (ligand, also called BMPGE P36R) QAKHKQRKRLKSSCKRHPLYVDFSDVGWNDWIIAPRGYAAFYCDGECSFPLNAHMNATNHAIVQTLVHLMNPEYVPKPCCAPTELNAISVLYFDDNSNVILKNYQDMVVEGCGCR ; retrieve measured Kd.
# output 2
